# Test system: locomotive activity induced by L-Dopa
# Test Name: Potentiation of locomotive activity induced on mice by L-Dopa
# Type: in vivo, male mice
# Applied Conditions: Pargyline 40 mg/kg i.p., compound 20 mg/kg i.p., L-Dopa 100 mg/kg i.p., 60 min, percent related to TRH
Where a SMILES comes first, the peptide text is derived from it. [ ]: non-standard residue; d: D form. pGlu = O=C1CC[C@@H](C(=O)O)N1; Nle = CCCC[C@H](N)C(=O)O; Abu = CC[C@H](N)C(=O)O
Property: Potentiation of the locomotive effect of L-Dopa % after 60' (%)
Hi! Could you send only the number? It should be in %, unit omitted.

Study these solved cases before continuing.
## Input If you can, please state the reported Potentiation of the locomotive effect of L-Dopa % after 60' value of CCCC[C@H](NC(=O)[C@@H]1CCC(=O)N1)C(=O)N1CCC[C@H]1C(N)=O [Nleu Pro H, L-Pyroglutamyl-L-norleucyl-L-prolinamide] ([pGlu]-[Nle]-Pro-NH2) .
## Output 105

## Input // same read-out, input: CC[C@H](NC(=O)[C@@H]1CCC(=O)N1)C(=O)N1CCC[C@H]1C(N)=O [Abu Pro H] ([pGlu]-[Abu]-Pro-NH2)
## Output 14

Others:
## Input If you can, please state the reported Potentiation of the locomotive effect of L-Dopa % after 60' value of NC(=O)[C@@H]1CCCCN1C(=O)[C@H](Cc1c[nH]cn1)NC(=O)[C@@H]1CCC(=O)N1 [His HPro H] .
## Output 85

---

# Tested on: locomotive activity induced by L-Dopa
# Test Name: Potentiation of locomotive activity induced on mice by L-Dopa
# Assay type: in vivo, male mice
# Applied Conditions: Pargyline 40 mg/kg i.p., compound 20 mg/kg i.p., L-Dopa 100 mg/kg i.p., 60 min, percent related to TRH
Where a SMILES comes first, the peptide text is derived from it. [ ]: non-standard residue; d: D form. pGlu = O=C1CC[C@@H](C(=O)O)N1; Nva = CCC[C@H](N)C(=O)O
Property: Potentiation of the locomotive effect of L-Dopa % after 60'

## Input If you can, please state the reported Potentiation of the locomotive effect of L-Dopa % after 60' value of NC(=O)[C@@H]1CCCN1C(=O)[C@H](Cc1c[nH]cn1)NC(=O)[C@@H]1CCC(=O)N1 [TRH, L-pyroglutamyl-L-histidyl-L-prolinamide, reference compound] .
## Output 100%

## Input // same read-out, input: CCNC(=O)[C@@H]1CCCN1C(=O)[C@H](CC(C)C)NC(=O)[C@@H]1CCC(=O)N1 [Leu Pro Et] ([pGlu]-Leu-Pro-NHEt)
## Output 90%

## Input // same read-out, input: CCC[C@H](NC(=O)[C@@H]1CCC(=O)N1)C(=O)N1CCC[C@H]1C(N)=O [Nva Pro H, L-Pyroglutamyl-L-norvalyl-L-prolinamide] ([pGlu]-[Nva]-Pro-NH2)
## Output 156%

---

# Test system: locomotive activity induced by L-Dopa
# Test Name: Potentiation of locomotive activity induced on mice by L-Dopa
# Type: in vivo, male mice
# Applied Conditions: Pargyline 40 mg/kg i.p., compound 20 mg/kg i.p., L-Dopa 100 mg/kg i.p., 30 min, percent related to TRH
Where a SMILES comes first, the peptide text is derived from it. [ ]: non-standard residue; d: D form. pGlu = O=C1CC[C@@H](C(=O)O)N1; Nle = CCCC[C@H](N)C(=O)O; Nva = CCC[C@H](N)C(=O)O; Abu = CC[C@H](N)C(=O)O
Classify as follows. Reported Potentiation of the locomotive effect of L-Dopa % after 30' greater than or equal to 200%: Fulfilled. Reported Potentiation of the locomotive effect of L-Dopa % after 30' below: Not fulfilled.

Study these solved cases before continuing.
## Input Exam item: decide whether the reported Potentiation of the locomotive effect of L-Dopa % after 30' for NC(=O)[C@@H]1CCCCN1C(=O)[C@H](Cc1c[nH]cn1)NC(=O)[C@@H]1CCC(=O)N1 [His HPro H] is at least 200%.
## Output Fulfilled

## Input // same read-out, input: CCC[C@H](NC(=O)[C@@H]1CCC(=O)N1)C(=O)N1CCC[C@H]1C(N)=O [Nva Pro H, L-Pyroglutamyl-L-norvalyl-L-prolinamide] ([pGlu]-[Nva]-Pro-NH2)
## Output Fulfilled

Others:
## Input Exam item: decide whether the reported Potentiation of the locomotive effect of L-Dopa % after 30' for CCNC(=O)[C@@H]1CCCN1C(=O)[C@H](CC(C)C)NC(=O)[C@@H]1CCC(=O)N1 [Leu Pro Et] ([pGlu]-Leu-Pro-NHEt) is at least 200%.
## Output Not fulfilled

## Input // same read-out, input: CC[C@H](NC(=O)[C@@H]1CCC(=O)N1)C(=O)N1CCC[C@H]1C(N)=O [Abu Pro H] ([pGlu]-[Abu]-Pro-NH2)
## Output Not fulfilled

## Input // same read-out, input: CCCC[C@H](NC(=O)[C@@H]1CCC(=O)N1)C(=O)N1CCC[C@H]1C(N)=O [Nleu Pro H, L-Pyroglutamyl-L-norleucyl-L-prolinamide] ([pGlu]-[Nle]-Pro-NH2)
## Output Fulfilled

## Input // same read-out, input: NC(=O)[C@@H]1CCCN1C(=O)[C@H](Cc1c[nH]cn1)NC(=O)[C@@H]1CCC(=O)N1 [TRH, L-pyroglutamyl-L-histidyl-L-prolinamide, reference compound]
## Output Not fulfilled
